# system_name: human factor Xa (Enzyme Research Laboratories, Inc.) (human, UniProt P00742 41-179; P00742 235-488, limits assumed)
# Sequence (P00742 41-179 limits assumed, chain 1 of 2): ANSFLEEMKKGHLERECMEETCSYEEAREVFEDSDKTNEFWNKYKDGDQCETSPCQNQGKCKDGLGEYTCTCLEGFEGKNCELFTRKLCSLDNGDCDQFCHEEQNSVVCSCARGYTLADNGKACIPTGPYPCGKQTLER
# Sequence (P00742 235-488 limits assumed, chain 2 of 2): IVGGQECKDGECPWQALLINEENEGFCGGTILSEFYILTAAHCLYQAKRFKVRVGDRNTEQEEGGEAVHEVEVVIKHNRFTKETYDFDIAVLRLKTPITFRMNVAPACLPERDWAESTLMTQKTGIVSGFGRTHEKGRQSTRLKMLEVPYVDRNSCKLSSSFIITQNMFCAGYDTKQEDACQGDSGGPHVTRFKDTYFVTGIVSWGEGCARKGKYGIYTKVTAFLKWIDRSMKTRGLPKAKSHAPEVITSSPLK
# test_method_notes: chromogenic FXa inhibition
Positions of bridges follow the written chain, without caps; N, C: chain ends.
observation_type: Ki

Ac-WLRLA-NH2 [Ac-W-L-R-L-A-NH2] :: < 100 µM

Please find the next binder below.
Which measured Ki value corresponds to Ac-EYIRLK-NH2 (lactam 1-6; SMILES CC[C@H](C)[C@@H]1NC(=O)[C@H](Cc2ccc(O)cc2)NC(=O)[C@@H](NC(C)=O)CCC(=O)NCCCC[C@@H](C(N)=O)NC(=O)[C@H](CC(C)C)NC(=O)[C@H](CCCNC(=N)N)NC1=O, underlining that marks the cyclized portion is lost in the text) [Ac-E-Y-I-R-L-K-NH2**] ?
< 100 µM
